tested on: IL-10; assay: Human IL-10 induction assay in PBMCs; type: cell-based; conditions: PBMC; TPA/PHA treated human PBMCs; Table 2
reported_property: pIC50
Numbers only, as −log10 of the molar value.

Worked examples follow.
[[record]]
compound = "CCC(CC)(c1ccc(OCC(=O)C(C)(C)C)c(C)c1)c1ccc2cc(C(=O)NCC(=O)O)sc2c1"
readout_value = 8.22

[[record]]
compound = "CCC(CC)(c1ccc(OCC(O)C(C)(C)C)c(C)c1)c1ccc2cc(C(=O)NCC(=O)O)sc2c1 (stereo not shown)"
readout_value = 8.40

[[record]]
compound = "CCC(CC)(c1ccc(OCC(=O)C(C)(C)C)c(C)c1)c1cc2cc(C(=O)NCC(=O)O)ccc2s1"
readout_value = 6.83

[[record]]
compound = "CCC(CC)(c1ccc(OCC(O)C(C)(C)C)c(C)c1)c1cc2cc(C(=O)O)ccc2s1 (stereo not shown)"
readout_value = 7.05

[[record]]
compound = "CCC(CC)(c1ccc(OCC(=O)C(C)(C)C)c(C)c1)c1cc2ccc(C(=O)NCC(=O)O)cc2s1"
readout_value = 8.00


Consider the following items and state reported pIC50 for each.
1. CCC(CC)(c1ccc(OCC(=O)C(C)(C)C)c(C)c1)c1ccc2cc(C(=O)O)sc2c1
2. CCC(CC)(c1ccc(OCC(O)C(C)(C)C)c(C)c1)c1ccc2cc(C(=O)O)sc2c1 (stereo not shown)
3. CCC(CC)(c1ccc(OCC(O)C(C)(C)C)c(C)c1)c1cc2ccc(C(=O)O)cc2s1 (stereo not shown)
4. CCC(CC)(c1ccc(OCC(=O)C(C)(C)C)c(C)c1)c1ccc2cc(C(=O)N(C)C)sc2c1
5. CCC(CC)(c1ccc(OCC(O)C(C)(C)C)c(C)c1)c1cc2cc(C(=O)NCC(=O)O)ccc2s1 (stereo not shown)

Response:
1. 6.96
2. 7.62
3. 7.82
4. 6.45
5. 6.41
